Provide the recorded EC50 for the entries that follow.
system: Streptococcus sp. 'group A'; assay: Streptococcus pyogenes SK(-)GAS viability under kanamycin – luminescence, BacTiterGlo, confirmation, counter-screen for streptokinase expression inhibitor project, dose response (AID 1900); type: functional, organism-based
Calls of active or inactive are those of the source.

1. COc1cc(OC)cc(C(=O)Nc2nc3ccccc3[nH]2)c1 | 7.14 µM (active)
2. Cc1ccc(C(C)C)c(OCc2ccc(C(=O)N/N=C/c3ccc(O)cc3O)cc2)c1 | 1.3 µM (active)
3. Cc1cccc(NC2=NC(N)=NC(C)(C)N2)c1 | < 0.06 µM (active)
4. O=[N+]([O-])/C=C/c1ccc2c(ccn2Cc2ccccc2)c1 | 2.91 µM (active)
5. COc1cccc(/C=C/C(=O)OCC(=O)Nc2nnc(-c3ccccc3)o2)c1 | 6.11 µM (active)

For every item below, please supply its EC50.
1. CN(C)/C=C1\SC(=S)N(c2ccc(Br)cc2)C1=O
2. O=C(Nc1nc2cc3c(cc2s1)OCCO3)c1ccco1

[out]
1: 7.37 µM (active); 2: 19.5 µM (active)

====

biological target: G-protein coupled receptor 55 (Homo sapiens, UniProt Q9Y2T6); assay: inhibition of LPI-stimulated GPR55 beta-arrestin translocation – imaging, U2OS, beta-arrestin-GFP, LPI agonist, primary screen (AID 2013); type: functional;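 note: antagonist potency measured as reduced agonist-driven arrestin aggregation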
Sequence (Q9Y2T6 whole entry): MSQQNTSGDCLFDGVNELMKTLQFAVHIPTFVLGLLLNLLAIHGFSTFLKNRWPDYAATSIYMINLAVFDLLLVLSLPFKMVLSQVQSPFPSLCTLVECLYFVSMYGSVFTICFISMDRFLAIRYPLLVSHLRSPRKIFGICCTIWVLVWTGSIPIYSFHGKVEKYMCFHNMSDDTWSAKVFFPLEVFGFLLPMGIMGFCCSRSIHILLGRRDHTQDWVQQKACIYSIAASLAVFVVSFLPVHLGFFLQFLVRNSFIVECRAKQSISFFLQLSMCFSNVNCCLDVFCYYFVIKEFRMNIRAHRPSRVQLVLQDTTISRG
Activity calls are given as the source filed them.
Provide the recorded IC50 for the entries that follow.

1) O=C(/C=C/c1cccnc1)/C=C/c1cccnc1 | 3.26 µM (active)

For every item below, please supply its IC50.
1. CN(C)CCNC(=O)c1cc2c(s1)-c1ccc(Cl)cc1SC2
2. Cc1nc(N2CCN(C(=O)c3ccco3)CC2)c2c3c(sc2n1)CC(C)CC3 (stereo not given)
3. COC(=O)c1ccccc1NC(=S)NC(NC(=O)c1ccco1)C(Cl)(Cl)Cl (stereo not given)
4. CCc1nnc(NS(=O)(=O)c2ccc(NC(=O)/C=C/c3ccc(OC)cc3OC)cc2)s1

[out]
1: 6.25 µM (active); 2: 0.653 µM (active); 3: 8.08 µM (active); 4: 1.44 µM (active)

====

biological target: Cytochrome P450 2C19 (Homo sapiens, UniProt P33261); test: Cytochrome panel assay with activity outcomes. Panel member name: p450-cyp2c19 Compounds with AC50 equal or less than 10 uM are considered active; type: functional; details: read-out: AC50
Sequence (P33261 whole entry): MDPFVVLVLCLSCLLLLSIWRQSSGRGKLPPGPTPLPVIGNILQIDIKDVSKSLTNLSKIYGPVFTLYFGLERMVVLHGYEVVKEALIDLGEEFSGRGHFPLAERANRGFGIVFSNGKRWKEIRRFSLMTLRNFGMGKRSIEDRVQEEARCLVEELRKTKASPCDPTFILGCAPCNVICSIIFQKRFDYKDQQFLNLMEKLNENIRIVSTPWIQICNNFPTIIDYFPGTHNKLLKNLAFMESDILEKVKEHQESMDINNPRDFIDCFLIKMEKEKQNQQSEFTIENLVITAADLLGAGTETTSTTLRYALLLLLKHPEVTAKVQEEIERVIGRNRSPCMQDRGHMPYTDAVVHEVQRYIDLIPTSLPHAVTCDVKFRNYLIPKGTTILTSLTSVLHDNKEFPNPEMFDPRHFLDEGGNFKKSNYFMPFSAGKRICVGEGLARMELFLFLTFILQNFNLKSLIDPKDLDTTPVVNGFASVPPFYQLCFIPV
Provide the recorded AC50 for the entries that follow.

Worked examples, 6 molecules total:
1. O=C(Nc1cc2ccccc2oc1=O)C1CCCCC1 | 28.2 µM (inconclusive)
2. CCOc1ccc(CCNC(=O)C2CC(=O)N(C3CCCC3)C2)cc1OCC (configuration not stated) | 0.0631 µM (inconclusive)
3. Fc1ccc2nc3[nH]c4ccccc4c3nc2c1 | 20 µM (inconclusive)
4. O=C1N=C2SCCN2/C1=C\c1c(Cl)cccc1Cl | 28.2 µM (inconclusive)
5. CCOc1ccc(-n2c(=O)[nH]cc(C(=O)N3CCCc4ccccc43)c2=O)cc1 | 5.01 µM (inconclusive)
6. COC(=O)[C@@H]1C[C@H]1[C@@H](NC(=O)c1cc(C)nn1C)c1ccccc1 | 39.8 µM (inconclusive)

For every item below, please supply its AC50.
1. N[C@@H](Cc1cc(-c2ccc(Cl)cc2Cl)cc(CP(=O)(O)O)c1O)C(=O)O
2. COC(=O)[C@@]1(Cc2ccc(OC)cc2)[C@H]2c3cc(C(=O)N4CCCC4)n(CCc4ccccn4)c3C[C@H]2CN1C(=O)c1ccccc1
3. COc1ccc(C(=O)NCc2cn3ccccc3n2)cc1
4. CCC1NC(=S)N(C2CCCCC2)C1=O (configuration not stated)
5. COc1ccc(NC(=O)N2CC3(CCN(C(=O)c4c(C)noc4C)CC3)C2)cc1

[out]
1. 7.94 µM (inconclusive)
2. 25.1 µM (inconclusive)
3. 20 µM (inconclusive)
4. 5.01 µM (inconclusive)
5. 39.8 µM (inconclusive)

====

target: Voltage-dependent T-type calcium channel subunit alpha-1H (Homo sapiens); assay type: functional;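 note: channel activity triggered by adding a high calcium stimulation buffer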
Sequence (O95180 whole entry): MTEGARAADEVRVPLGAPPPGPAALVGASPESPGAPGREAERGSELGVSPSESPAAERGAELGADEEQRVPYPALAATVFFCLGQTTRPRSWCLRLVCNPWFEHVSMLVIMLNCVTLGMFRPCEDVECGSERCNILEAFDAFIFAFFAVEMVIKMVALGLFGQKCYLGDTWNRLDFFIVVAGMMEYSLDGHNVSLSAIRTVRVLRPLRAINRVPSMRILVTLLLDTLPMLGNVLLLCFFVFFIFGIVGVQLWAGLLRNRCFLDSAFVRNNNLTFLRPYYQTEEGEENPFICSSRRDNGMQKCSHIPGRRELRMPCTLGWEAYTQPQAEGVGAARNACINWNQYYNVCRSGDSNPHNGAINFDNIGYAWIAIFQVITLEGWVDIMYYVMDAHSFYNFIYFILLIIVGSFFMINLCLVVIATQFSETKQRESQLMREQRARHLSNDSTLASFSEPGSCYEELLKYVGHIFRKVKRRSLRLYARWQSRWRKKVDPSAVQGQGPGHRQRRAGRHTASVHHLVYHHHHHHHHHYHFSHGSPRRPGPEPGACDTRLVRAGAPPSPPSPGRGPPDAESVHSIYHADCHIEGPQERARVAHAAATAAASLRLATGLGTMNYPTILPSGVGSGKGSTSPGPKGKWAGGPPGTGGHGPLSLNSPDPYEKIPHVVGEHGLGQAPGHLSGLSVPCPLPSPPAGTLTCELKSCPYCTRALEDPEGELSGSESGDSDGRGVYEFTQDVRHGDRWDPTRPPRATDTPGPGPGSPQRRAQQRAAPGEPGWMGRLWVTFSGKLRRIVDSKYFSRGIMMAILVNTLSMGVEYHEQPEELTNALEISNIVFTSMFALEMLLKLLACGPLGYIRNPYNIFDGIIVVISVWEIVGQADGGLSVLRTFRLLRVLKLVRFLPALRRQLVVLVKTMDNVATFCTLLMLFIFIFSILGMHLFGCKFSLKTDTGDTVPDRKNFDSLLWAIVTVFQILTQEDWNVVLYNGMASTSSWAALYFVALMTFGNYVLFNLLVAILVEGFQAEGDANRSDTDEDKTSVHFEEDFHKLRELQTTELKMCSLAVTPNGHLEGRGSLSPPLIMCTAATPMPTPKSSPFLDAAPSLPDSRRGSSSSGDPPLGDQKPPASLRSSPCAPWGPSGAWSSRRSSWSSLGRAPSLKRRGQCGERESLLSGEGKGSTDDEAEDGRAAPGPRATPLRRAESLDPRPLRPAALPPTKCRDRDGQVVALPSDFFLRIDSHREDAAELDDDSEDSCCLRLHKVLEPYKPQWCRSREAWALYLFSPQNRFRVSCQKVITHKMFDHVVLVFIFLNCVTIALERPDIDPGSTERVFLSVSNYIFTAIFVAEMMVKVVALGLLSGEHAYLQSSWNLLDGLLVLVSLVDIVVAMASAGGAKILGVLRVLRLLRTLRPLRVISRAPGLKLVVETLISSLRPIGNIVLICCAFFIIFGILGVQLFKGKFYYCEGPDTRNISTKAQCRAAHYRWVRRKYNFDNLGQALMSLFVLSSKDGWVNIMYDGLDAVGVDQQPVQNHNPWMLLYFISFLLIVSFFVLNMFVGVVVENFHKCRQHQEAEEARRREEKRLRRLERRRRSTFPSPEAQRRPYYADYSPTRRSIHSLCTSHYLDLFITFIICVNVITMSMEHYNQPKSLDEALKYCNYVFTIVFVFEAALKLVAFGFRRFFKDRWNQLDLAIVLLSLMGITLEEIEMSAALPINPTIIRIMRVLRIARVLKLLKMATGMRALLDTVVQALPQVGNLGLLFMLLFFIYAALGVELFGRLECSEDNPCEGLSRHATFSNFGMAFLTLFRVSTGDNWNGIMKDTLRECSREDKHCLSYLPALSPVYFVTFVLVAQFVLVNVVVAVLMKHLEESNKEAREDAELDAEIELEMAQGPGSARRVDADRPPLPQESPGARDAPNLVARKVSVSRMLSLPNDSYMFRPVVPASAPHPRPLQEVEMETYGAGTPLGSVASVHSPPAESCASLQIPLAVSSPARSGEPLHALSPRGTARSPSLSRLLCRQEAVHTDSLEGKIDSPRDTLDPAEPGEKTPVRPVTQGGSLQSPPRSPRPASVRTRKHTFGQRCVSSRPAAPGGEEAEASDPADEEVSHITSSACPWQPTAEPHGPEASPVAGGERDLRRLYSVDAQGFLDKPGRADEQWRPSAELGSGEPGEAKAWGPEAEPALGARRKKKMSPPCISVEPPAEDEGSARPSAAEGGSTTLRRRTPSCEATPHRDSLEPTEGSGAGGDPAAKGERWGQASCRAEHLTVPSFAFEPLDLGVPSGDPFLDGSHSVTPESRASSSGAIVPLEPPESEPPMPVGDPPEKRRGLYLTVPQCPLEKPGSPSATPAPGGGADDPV
Activity calls are given as the source filed them.
measured-metric: EC50

For every item below, please supply its EC50.
1. CCn1nc(C(=O)Nc2cccc3ccccc23)c(Cl)c1Cl
2. Cc1cccc(C2=NCC(=O)N(CC(=O)NCc3ccco3)c3sc4c(c32)CCCC4)c1
3. O=S(=O)(NCc1ccccc1)c1ccc(S(=O)(=O)N(Cc2ccccn2)C2CCCC2)cc1

[out]
10.5 µM (active)
4.37 µM (active)
3.02 µM (active)

====

Here's what we have: AC50 numbers for Cytochrome P450 1A2 (Homo sapiens, UniProt P05177).

Worked examples, 8 compounds total:
1. CCOC(=O)c1ccc(Cl)c(NC(=O)c2ccc(-c3ccccc3)cc2)c1 | 28.2 µM (inconclusive)
2. C[C@@H](C(=O)NCCc1c[nH]c2ccccc12)[C@@H]1C[C@@]1(C)[C@@H](NC(=O)OCc1ccccc1)c1ccccc1 | 12.6 µM (inconclusive)
3. O=S(=O)(Nc1nc(-c2sccc2Cl)cs1)c1cc(Cl)ccc1Cl | 28.2 µM (inconclusive)
4. Cn1cccc1C(=O)N1CCC2(CC1)CCN(C(c1ccccc1)c1ccccc1)CC2 | 5.01 µM (inconclusive)
5. C[C@@H](C(=O)O)/C(=C/c1ccc2c(c1)OCO2)C(=O)O | 0.316 µM (inconclusive)
6. Cc1cc2c(cc1C)NC(c1nc3ccccc3[nH]1)C1=C(O)CC(C)(C)CC1=N2 (centres undefined) | 25.1 µM (inconclusive)
7. O=c1c(-c2ccc(Cl)cc2)nc2cnc(N3CCOCC3)nc2n1CCc1ccccc1 | 2 µM (inconclusive)
8. Cc1nn(CC(=O)NCc2ccccc2Cl)c(C)c1[N+](=O)[O-] | 12.6 µM (inconclusive)

Consider the additional compound presented here.
[in] What measured AC50 goes with "COc1ccc(-c2nc(C(=O)N3CCN(C)CC3)sc2-c2ccc(OC)cc2)cc1" ?
[out] 31.6 µM (inconclusive)

====

Biological target: Leucine aminopeptidase (Plasmodium falciparum 3D7, UniProt Q8IL11)
Sequence (Q8IL11 whole entry): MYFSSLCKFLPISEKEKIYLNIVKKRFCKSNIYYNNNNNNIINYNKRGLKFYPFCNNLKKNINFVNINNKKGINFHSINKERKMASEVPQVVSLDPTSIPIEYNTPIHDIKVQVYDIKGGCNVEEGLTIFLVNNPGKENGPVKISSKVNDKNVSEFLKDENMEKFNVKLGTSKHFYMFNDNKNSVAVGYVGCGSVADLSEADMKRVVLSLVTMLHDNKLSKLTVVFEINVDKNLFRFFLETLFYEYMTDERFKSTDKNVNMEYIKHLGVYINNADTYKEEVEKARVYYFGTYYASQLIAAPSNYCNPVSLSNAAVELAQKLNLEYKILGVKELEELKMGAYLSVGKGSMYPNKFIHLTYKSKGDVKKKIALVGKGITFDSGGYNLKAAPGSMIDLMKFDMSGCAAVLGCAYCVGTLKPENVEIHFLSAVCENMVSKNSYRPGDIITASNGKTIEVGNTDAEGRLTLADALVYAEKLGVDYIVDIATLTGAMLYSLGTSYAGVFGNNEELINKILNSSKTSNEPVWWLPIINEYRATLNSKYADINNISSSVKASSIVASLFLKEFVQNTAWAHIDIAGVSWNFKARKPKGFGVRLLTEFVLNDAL
Test: P. falciparum M17LAP inhibitors, primary screen, biochemical, fluorogenic H-Leu-NHMec substrate, 1536-well (AID 1619)
Assay type: functional
Activity calls are given as the source filed them.
measured-metric: IC50

1) Cc1ccc(Nc2nnc(SC/C(O)=C(\C#N)c3nc4ccccc4[nH]3)s2)c(C)c1 | 6.03 µM (active)
2) Cc1ccc2[nH]c(C)c(/C=C3/C(=N)N4C(=NC3=O)SN=C4S(=O)(=O)C(C)C)c2c1 | 7.16 µM (active)
3) CCc1nnc(NS(=O)(=O)c2ccc(NC(=O)/C=C/c3ccc(OC)cc3OC)cc2)s1 | 7.96 µM (active)
4) CCOC(=O)c1cc(=O)n2nc(-c3ccccc3F)nc2s1 | 31.2 µM (active)
5) CCCCNC(=S)Nc1ccc2cn[nH]c2c1 | 75.6 µM (active)

[in] What measured IC50 goes with "CC(C)=NN=C(N)NC(=S)Nc1ccc(C)cc1" ?
[out] 59.3 µM (active)

====

Provide the recorded IC50 for the entries that follow.
target: High affinity choline transporter 1 (Homo sapiens, UniProt Q9GZV3); test: human choline transporter blockers, potency – cell-based, 5-point CRC, membrane potential dye, dose response (AID 504840); type: functional
Sequence (Q9GZV3 whole entry): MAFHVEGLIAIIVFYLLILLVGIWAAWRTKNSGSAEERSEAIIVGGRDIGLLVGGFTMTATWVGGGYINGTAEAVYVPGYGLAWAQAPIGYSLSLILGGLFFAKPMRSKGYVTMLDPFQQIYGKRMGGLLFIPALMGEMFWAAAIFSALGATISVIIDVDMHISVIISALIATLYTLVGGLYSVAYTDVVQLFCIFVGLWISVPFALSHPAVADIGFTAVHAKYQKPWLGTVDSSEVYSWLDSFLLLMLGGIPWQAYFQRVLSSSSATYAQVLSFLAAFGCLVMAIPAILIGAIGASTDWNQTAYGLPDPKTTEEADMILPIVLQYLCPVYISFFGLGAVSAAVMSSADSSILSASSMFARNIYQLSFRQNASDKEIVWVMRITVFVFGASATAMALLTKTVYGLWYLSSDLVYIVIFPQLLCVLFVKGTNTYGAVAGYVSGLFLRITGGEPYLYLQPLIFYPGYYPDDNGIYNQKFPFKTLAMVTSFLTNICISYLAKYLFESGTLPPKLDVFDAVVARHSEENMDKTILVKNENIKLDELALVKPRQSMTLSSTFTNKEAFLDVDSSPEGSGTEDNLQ
Activity calls are given as the source filed them.

1) Oc1c(Br)cc(Br)cc1/C=N\c1cccnc1 | 4.37 µM (active)
2) COc1ccccc1CC(Cc1nc2ccccc2[nH]1)c1nc2ccccc2[nH]1 (centres undefined) | 13.8 µM (active)
3) CCOC(=O)CC1CCCCN1C(=O)c1cc(COc2cccc3cnccc23)on1 (centres undefined) | 11 µM (active)

[in] What measured IC50 goes with "O=C(CSc1c2c(nc3ccc(Cl)cc13)CCCC2)NCCCN1CCOCC1" ?
[out] 4.29 µM (active)
